Listed next: entries and their corresponding protein stability index.
B1: RAB11A (parent)
chain: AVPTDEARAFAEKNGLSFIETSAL

variants of: B1; test: protein stability index of a GFP-peptide fusion (GPS, HEK-293T) (PSI 1-6); higher = more stable; conditions: c terminus: a fixed tail appended;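 note: lentivirally expressed fusions sorted by FACS into six bins by GFP to DsRed ratio, PSI derived from sequencing read proportions per bin multiplied by bin number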
Answer as a number with no unit attached.

Guide cases for protein stability index, answers given:
S17P	4.38
A23L	1.9
V2F	2.35
F10K	2.37
A7P	2.04
K13P	2.28
N14P	2.44
T4D	2.84
E12W	2.08
E12M	1.54

Param item = A1F ; retrieve measured protein stability index.
3.39

Param item = F10M ; retrieve measured protein stability index.
2.27

Param item = P3Q ; retrieve measured protein stability index.
2.78

Param item = K13I ; retrieve measured protein stability index.
2.09

Param item = S17K ; retrieve measured protein stability index.
3.23
